assayed.system: UniProt P18031
Sequence (P18031 whole entry): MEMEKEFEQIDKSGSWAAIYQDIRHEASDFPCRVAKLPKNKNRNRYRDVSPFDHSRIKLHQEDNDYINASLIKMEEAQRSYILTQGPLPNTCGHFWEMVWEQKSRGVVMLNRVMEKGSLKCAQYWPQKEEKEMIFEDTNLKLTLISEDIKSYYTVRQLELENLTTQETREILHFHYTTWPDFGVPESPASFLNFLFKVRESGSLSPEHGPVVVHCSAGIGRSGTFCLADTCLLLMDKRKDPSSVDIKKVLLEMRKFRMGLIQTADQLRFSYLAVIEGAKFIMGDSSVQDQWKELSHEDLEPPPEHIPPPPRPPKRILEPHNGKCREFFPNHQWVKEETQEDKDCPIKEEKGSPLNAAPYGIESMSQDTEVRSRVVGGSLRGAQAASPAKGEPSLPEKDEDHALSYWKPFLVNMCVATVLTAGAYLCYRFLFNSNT
We begin with IC50 values for UniProt P18031, as collected from the published literature.

Please supply IC50 for each of the following items, keeping them in order.
1. CO[C@H]1CC[C@]2(C)[C@H]3CC=C4[C@@H]5CC(C)(C)CC[C@]5(C(=O)O)CC[C@@]4(C)[C@]3(C)CC[C@H]2C1(C)C
2. Cc1cc(CN(Cc2ccc(-c3csnn3)cc2)S(=O)(=O)c2ccc(OCC(=O)O)cc2)cc(C)c1OC(Cc1ccccc1)C(=O)O (stereo unspecified)
3. COCCc1ccc(Oc2ccc(-c3cnc(-c4cc(O)c(O)c(Br)c4)o3)cc2)cc1
4. O=C(O)c1cc(-c2ccccc2)cc(Br)c1O
5. O=COC[C@H]1O[C@@H](Oc2c(O)cc(O)cc2/C=C/c2ccc(O)cc2)[C@H](O)[C@@H](O)[C@@H]1O
6. O=C(O)c1ccc(CN2C(=O)/C(=C/c3ccc4ccccc4c3)S/C2=N\c2ccccc2)cc1
7. CCOS(=O)(=O)/C=C/c1ccc(O[C@@H]2CN(C(=O)C(=O)Nc3ccc(Oc4ccc(Br)cc4)cc3)C[C@@H]2Oc2ccc(CCS(=O)(=O)OCC)cc2)cc1
8. O=C(O)CN1C(=O)/C(=C/c2cn(-c3ccccc3)nc2-c2ccc3ccccc3c2)SC1=S

Reply:
8.6 µM
> 250 µM
3.81 µM
351 µM
> 50 µM
1.9 µM
1.51 µM
4.78 µM
